molecular target: human carbonic anhydrase IX (CAIX) (human, UniProt Q16790 38-414); experiment: SPR (Biacore T200), single cycle kinetics; antibody in HEK EBNA supernatant captured on Protein G chip, CAIX as analyte
measurement name: relative KD (against the reference chimeric VH0/Vκ0 IgG1)

>>> meas_value("Girentuximab humanised VH1/Vκ1 IgG1 (antibody, V domains shown) VH: DVKLVESGGGLVKPGGSLRLSCAASGFTFSNYYMSWVRQAPGKGLELVAAINSDGGITYYLDTVKGRFTISRDNAKNTLYLQMSSLKSEDTALYYCARHRSGYFSMDYWGQGTSVTVSS VL: DIVMTQSPSFLSASVGDRVTITCKASQNVVSAVAWYQQKPGQAPKLLIYSASNRYTGVPDRFTGSGSGTDFTLTISSLQSEDLADYFCQQYSNYPWTFGGGTKVEIKR")
"≤ 2 fold"
>>> meas_value("Girentuximab humanised VH1/Vκ3 IgG1 (antibody, V domains shown) VH: DVKLVESGGGLVKPGGSLRLSCAASGFTFSNYYMSWVRQAPGKGLELVAAINSDGGITYYLDTVKGRFTISRDNAKNTLYLQMSSLKSEDTALYYCARHRSGYFSMDYWGQGTSVTVSS VL: DIQMTQSPSSLSASVGDRVTITCKASQNVVSAVAWYQQKPGQAPRLLIYSASNRYTGVPDRFSGSGSGTDFTLTISSLQAEDLADYFCQQYSNYPWTFGGGTKVEIKR")
"≤ 2 fold"
>>> meas_value("Girentuximab humanised VH1/Vκ2 IgG1 (antibody, V domains shown) VH: DVKLVESGGGLVKPGGSLRLSCAASGFTFSNYYMSWVRQAPGKGLELVAAINSDGGITYYLDTVKGRFTISRDNAKNTLYLQMSSLKSEDTALYYCARHRSGYFSMDYWGQGTSVTVSS VL: DIVMTQSPSSLSASVGDRVTITCKASQNVVSAVAWYQQKPGQAPRLLIYSASNRYTGVPDRFTGSGSGTDFTLTISSLQAEDLADYFCQQYSNYPWTFGGGTKVEIKR")
"≤ 2 fold"
